test system: E. coli TESEC Mtb Alr; test: growth (OD600 after 10 h); higher = more growth (less inhibition); conditions: arabinose 100000 nM; compound 0.1 mM; raw OD600 reference: median of DMSO wells 0.201, cell-free background 0.041
Counter-ions that a name gives are not always drawn.
Respond with 1 (yes) for growth values of 0.2 and above, 0 (no) for values below.

Challenge: Does the reported growth for CNCCc1ccccn1 [Betahistine mesylate] fall at or above the 0.2 mark?
Response given: 1 (yes)

Challenge: Item COc1ccccc1N1CCN(CC(O)COc2cccc3ccccc23)CC1 (stereo not drawn) [Naftopidil dihydrochloride] with growth of 0.2 or above?
Response given: 0 (no)

Challenge: Is growth at least 0.2? Consider C=CC[N@@+]12CC[C@@]34c5ccccc5N5/C=C6/[C@H]7C[C@H]8[C@@]9(CC[N@@+]8(CC=C)C/C7=C/CO)c7ccccc7N(/C=C(/[C@@H](C[C@@H]31)/C(=C\CO)C2)[C@H]54)[C@@H]69 [Alcuronium chloride]
Response given: 0 (no)

Challenge: Form field: growth at least 0.2? Entry: CN(C)C(=N)NC(=N)N [Metformin hydrochloride]
Response given: 1 (yes)

Challenge: Quick check, growth >= 0.2? CC(C)(Sc1cc(C(C)(C)C)c(O)c(C(C)(C)C)c1)Sc1cc(C(C)(C)C)c(O)c(C(C)(C)C)c1
Response given: 1 (yes)

Challenge: Does growth meet or surpass 0.2 for CC1(C)O[C@@H]2C[C@H]3[C@@H]4C[C@H](F)C5=CC(=O)C=C[C@]5(C)[C@H]4[C@@H](O)C[C@]3(C)[C@]2(C(=O)CO)O1 [Flunisolide] ?
Response given: 0 (no)

Challenge: Determine whether measured growth meets or exceeds 0.2 for C=C(NC(=O)C(=C)NC(=O)c1csc(C2=N[C@@H]3c4csc(n4)[C@H]4NC(=O)c5csc(n5)[C@H]([C@](C)(O)[C@@H](C)O)NC(=O)[C@H]5CSC(=N5)/C(=C/C)NC(=O)[C@H]([C@@H](C)O)NC(=O)c5csc(n5)[C@]3(CC2)NC(=O)[C@H](C)NC(=O)C(=C)NC(=O)[C@H](C)NC(=O)[C@H]([C@@H](C)CC)N[C@@H]2C=Cc3c([C@H](C)O)cc(nc3[C@H]2O)C(=O)O[C@@H]4C)n1)C(N)=O
Response given: 1 (yes)

Challenge: Hi team, for CNC1(C)C2CCC(C2)C1(C)C (stereo not drawn) [Mecamylamine hydrochloride] , is the recorded growth at or above 0.2?
Response given: 1 (yes)

Further cases:
Challenge: # bool: growth of CC(C)(C(=O)O)c1ccc(C(O)CCCN2CCC(C(O)(c3ccccc3)c3ccccc3)CC2)cc1 (stereo not drawn) [Fexofenadine HCl] >= 0.2
Response given: 1 (yes)

Challenge: Quick check, growth >= 0.2? Cc1cccc(Nc2ccncc2S(=O)(=O)NC(=O)NC(C)C)c1 [Torsemide]
Response given: 0 (no)

Challenge: Is it the case that C=CCSCC1Nc2cc(Cl)c(S(N)(=O)=O)cc2S(=O)(=O)N1 (stereo not drawn) [Althiazide] has growth reaching or exceeding 0.2?
Response given: 1 (yes)

---

system: E. coli TESEC Mtb DapB; test: growth (OD600 after 10 h); higher = more growth (less inhibition); details: arabinose induction (level): High; compound 0.1 mM; raw OD600 reference: median of DMSO wells […], cell-free background 0.041
Structures can show the parent of a compound that is named as a salt.
MEASUREMENT_TYPE: growth
Enter the number alone.

Sample answers from the record:
Challenge: Request body: readout growth, system E. coli TESEC Mtb DapB, query C1N2CN3CN1CN(C2)C3 . Return the value.
Response given: 0.204

Challenge: Record C[C@]12CC[C@@H]3c4ccc(O)cc4CC[C@H]3[C@@H]1CC[C@@H]2O : what is its growth with E. coli TESEC Mtb DapB?
Response given: 0.196

Challenge: Item: CC(C)Cn1cnc2c(N)nc3ccccc3c21 Test system: E. coli TESEC Mtb DapB Read-out: growth Value: ?
Response given: 0.21

Challenge: Give E. coli TESEC Mtb DapB growth for CCn1nc(C(=O)O)c(=O)c2cc3c(cc21)OCO3
Response given: 0.211

Challenge: API: value(readout=growth, system=E. coli TESEC Mtb DapB) for record CC(=O)O[C@]1(C(C)=O)CC[C@H]2[C@@H]3C=C(Cl)C4=CC(=O)CC[C@]4(C)[C@H]3CC[C@@]21C [Chlormadinone acetate]
Response given: 0.0988

---
Challenge: What reported growth corresponds to CC1(C)[C@@H](OC(=O)CCC(=O)O)CC[C@]2(C)[C@H]3C(=O)C=C4[C@@H]5C[C@@](C)(C(=O)O)CC[C@]5(C)CC[C@@]4(C)[C@]3(C)CC[C@@H]12 [Carbenoxolone disodium salt] on E. coli TESEC Mtb DapB?
Response given: 0.196

Challenge: Query for E. coli TESEC Mtb DapB: what growth does the record show for C#CCN(C)CCCOc1ccc(Cl)cc1Cl [Clorgyline hydrochloride] ?
Response given: 0.158

Challenge: Lookup: growth / E. coli TESEC Mtb DapB / CCOc1ccccc1OC(c1ccccc1)C1CNCCO1 (stereo not drawn) [Reboxetine mesylate]
Response given: 0.15

Hey, just so you know, these numbers are from the supplement of paper PMC9262897.
